The reported numbers originate from paper PMC9085743.

- system_tested: HIF-3α (Mus musculus, UniProt Q0VBL6)
- Sequence (Q0VBL6 235-363): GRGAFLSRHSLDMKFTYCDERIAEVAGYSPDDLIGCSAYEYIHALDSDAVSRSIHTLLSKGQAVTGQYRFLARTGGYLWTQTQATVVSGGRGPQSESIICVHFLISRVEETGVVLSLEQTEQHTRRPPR
readout_type: Kd

[ask] Query (compound): CCCCCCCC/C=C\CCCCCCCC(=O)NCCO [OEA, oleoylethanolamide] ; field requested: Kd
[reply] ~14 µM
